procedure_summary: recombinant UMI read abundance after kanamycin selection (control-corrected) (log10(CPM+1)); higher = more efficient recombination; extreme values may be limits of the assay; sequences stand for … in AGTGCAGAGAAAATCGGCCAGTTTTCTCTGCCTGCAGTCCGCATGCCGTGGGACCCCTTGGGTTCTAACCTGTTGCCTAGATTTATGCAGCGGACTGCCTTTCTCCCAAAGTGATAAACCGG…AGGTTGGTTTCACT; site = the 11-nt donor;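 also: IS621 bridge recombinase in Escherichia coli cells against a fixed T5 target plasmid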
Provide the recorded recombinant UMI read abundance (log10) for the entries that follow.
Answers are plain numbers.

query_sequence: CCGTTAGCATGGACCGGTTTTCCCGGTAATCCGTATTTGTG (site CCGATAGCTCA)
recombinant UMI read abundance (log10): 0.0175

query_sequence: AACCGTCCATGGACCGGTTTTCCCGGTAATCCGTATTTGGT (site AACCGTCCTAG)
recombinant UMI read abundance (log10): 0.00368

Required: recombinant UMI read abundance (log10), one value per sequence below.
1. GCGATAACATGGACCGGTTTTCCCGGTAATCCGTATTTGCT (site GCGACAACTAG)
2. GACTGATCATGGACCGGTTTTCCCGGTAATCCGTATTTGGC (site GACTGATCTGC)
3. TAGAATTCATGGACCGGTTTTCCCGGTAATCCGTATTTGCA (site TAGAATCCTTG)
4. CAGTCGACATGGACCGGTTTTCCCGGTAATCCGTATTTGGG (site CGGTCGACTCC)
5. AGGAACCCATGGACCGGTTTTCCCGGTAATCCGTATTTGCA (site AGGAAGACTTG)
6. GACGATTCATGGACCGGTTTTCCCGGTAATCCGTATTTGTT (site GAGGATTCTAA)

(A)
1. 0.00488
2. 2.46
3. 0
4. 0.0115
5. 0
6. 0

Required: recombinant UMI read abundance (log10), one value per sequence below.
1. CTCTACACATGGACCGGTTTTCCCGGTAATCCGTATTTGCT (site CTCTCCACTAG)
2. GTTAGAACATGGACCGGTTTTCCCGGTAATCCGTATTTGGG (site GTTAGAACTAC)
3. CCGGTAGCATGGACCGGTTTTCCCGGTAATCCGTATTTGAC (site CCGGTAGCTGT)
4. TCTTCAACATGGACCGGTTTTCCCGGTAATCCGTATTTGTG (site TCTTCAACTCA)

(A)
1: 0; 2: 0; 3: 2.38; 4: 0.0171

These measurements were taken from the supplement of paper PMC11208160.
